We begin with a simple list: items and their reported OD450.
# SYSTEM_NAME: T1, human MSLN-R1-his protein (human, UniProt Q13421 296-390)
# T1 construct: Made in HEK293E cells, purified on nickel column; also called hMSLN-R1-his; human MSLN-R1 protein; not shown: His tag
# T1 chain: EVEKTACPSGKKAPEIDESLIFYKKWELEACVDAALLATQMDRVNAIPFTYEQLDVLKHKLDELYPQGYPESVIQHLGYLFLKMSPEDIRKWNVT
# METHOD_SUMMARY: ELISA, coated antigen, antibody 200 nM
Reply with just the number.

# BINDER, OD450
data = [
    ("S009-F7.11.11 chimeric antibody (antibody, human IgG1, kappa, V domains shown, Human-murine chimeric antibody, human IgG1/kappa constant regions) VH: EVQLQQSGPELVKPGASVKIPCKASGYTITDYNMDWVKQSRGKSLEWIGDVFPYNGDSIYNQKFEGRATLTVDKYSSTAYMELRGLTSEDTAVYFCARRKTGTGYFDVWGTGTTVTVSS VL: QLVLTQSPAIMSASPGEKVTLTCSASSSVSSTYLSWYLQKPGSSPKLWIYSTSNLASGVPARFSGSGSGTSYSLTISSMEAEDAASYFCHQWSSYPYTFGGGTKLEIKR", 0.06),
    ("S009-F7.12.13 chimeric antibody (antibody, human IgG1, kappa, V domains shown, Human-murine chimeric antibody, human IgG1/kappa constant regions) VH: EVQLQQSGPELVKPGASVKIPCKASGYTFTDYNMDWVKQSHGKGLEWIGDINPNTDDTIYNQKFNGKATLTVDKSSSTAYMELRSLTSEDTAVYYCSRRLIGTGYFDVWGTGTTVTVSS VL: QIVLTQSPAIMSASPGEKVTLTCSASSSVISTYLCWYRQKPGSSPELWIYSTSNLASGVPARFSGSGSGTSYSLTISSMEAEDAASYFCHQWSNYPYTFGGGTKLGMKR", 0.06),
    ("S009-F7.69.8 chimeric antibody (antibody, human IgG1, kappa, V domains shown, Human-murine chimeric antibody, human IgG1/kappa constant regions) VH: EVHLQQSGPELVKPGASVRIPCKASGYTFTDYNMDWVKQSHGKSLEWIGDINPDNGGTIYTQKFKGKATLTVDKSSSTAYMELRSLTSEDTAVYYCARRLHYYGSSGLDYWGQGTTLTVSS VL: DIQMTQSPASLSAYVGETVTITCRASGNIHNYLAWYQQKQGKSPQLLVYNAKTLADGVPSRFSGSGSGTQYSLKINSLQPEDFGSYYCQHFWSTVWTFGGGTKLEIKR", 0.11),
]

Endpoint output: OD450 of S009-F7.61.21 chimeric antibody (antibody, human IgG1, kappa, V domains shown, Human-murine chimeric antibody, human IgG1/kappa constant regions) VH: DVQLQQSGPELVEPGASVRIPCKAAGHTFTDYNVDWVKQSHGQSLEWIGDVNPNTDGAIYNQKFEGKATLTVDTSSSTAYMELRSLTSEDTAVYFCARRRLGQGGFDSWGQGTTLTVSS VL: QVVLTQSPAIMSASPGEKVTLTCGASSSLISKYLYWYQQKPGSSPKLWIYSTSNLASGVPARFSGSGSGTSYSLTISSMEAEDAASYFCHQWSSYPYTFGGGTKVEIKR . Value?
0.07

Endpoint output: OD450 of S009-F7.2.3 chimeric antibody (antibody, human IgG1, kappa, V domains shown, Human-murine chimeric antibody, human IgG1/kappa constant regions) VH: ELQLVESGGDLVKPGGSLKLSCAASGFTFSSNGMSWLRQTPDKRLEWVATISSGGRYTYYPDSVKGRFTISRDNAKNTLYLQMSSLKSEDTAMYYCARRGIYDYFDCWGQGTTLTVSS VL: DIQMTQSPASLSISVGETVTITCRASENIHSSLAWYQQKQGKSPQLLVYAATNLADGVPSRFSGSGSGSQYSLKINSLQSEDFGTYYCQHFWGTPWTFGGGTKLDIKR . Value?
0.1
